- assay_method_text: self-splicing fitness, log relative to wild type (ln ratio); higher = more splicing; Tetrahymena group I intron in knt gene, E. coli kanamycin selection, DiMSum; sequences stand for … in CUCUCU…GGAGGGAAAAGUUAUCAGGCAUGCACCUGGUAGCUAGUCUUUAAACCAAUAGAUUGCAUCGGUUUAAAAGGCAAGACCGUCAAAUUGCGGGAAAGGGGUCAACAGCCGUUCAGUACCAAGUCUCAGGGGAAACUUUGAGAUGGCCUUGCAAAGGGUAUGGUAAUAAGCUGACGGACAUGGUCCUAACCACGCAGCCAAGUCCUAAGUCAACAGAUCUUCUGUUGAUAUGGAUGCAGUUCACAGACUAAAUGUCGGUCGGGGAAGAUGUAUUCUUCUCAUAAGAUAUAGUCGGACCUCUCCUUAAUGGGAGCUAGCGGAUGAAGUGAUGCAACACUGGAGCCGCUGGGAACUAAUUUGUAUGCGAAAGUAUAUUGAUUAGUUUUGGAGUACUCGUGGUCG;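 note: selection with 25 µg/mL kanamycin versus none on LB agar overnight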
- reported_conditions: 30 °C
Entries and their measured self-splicing fitness (ln) follow.
I'd appreciate a reply containing only the number, no unit.

Below, each entry is followed by its recorded self-splicing fitness (ln) result.
1) AUGAAGCAAUAUUACGAACC: 0.0578
2) GGAGAGCAAUAUUACGUAUU: -4.02
3) UGCGAGCAAUAUUACGAGCG: -2.92
4) GGAUAGCAAUAUUACGAUGU: -0.882
5) ACAAAGCAAUAUUACGAAGA: -3.03
6) UUCAAGCAAUAUUACGACUU: -3.86
7) GUACAGCAAUAUUACGUGAA: -3.94
8) CCUUAGCAAUAUUACGCGAG: -4.2

Turning now to a further sequence:
Which self-splicing fitness (ln) value is on record for UAGAAGCAAUAUUACGGCCG ?
0.101
